This collection of values is drawn from patent US20180346592A1.

test_target: GPC3 on the surface of hepatic cancer cell lines (SK-Hep1-GPC3 transfectant, HepG2, Huh7, Hep3B, SNU398) (human) (UniProt P51654)
test_name: FACS, HepG2 cells, 1 ug antibody; lower left panel (Human naive library)
observation_type: Mean, FL2-H
API note: the answer field is a bare number with no unit suffix.

// query Need Mean, FL2-H, item clone GX263 (scFv, V domains shown) VH: EVQLVESGGGLVKPGGSLRLSCAASGFTFSSYSMNWVRQAPGKGLEWVSSISSSSSYIYYADSVKGRFTISRDNAKNSLYLQMNSLRAEDTAVYYCARVTPYYYYGMDVWGQGTTVTVSS VL: QSVVTQPPSVSAAPGQKVTISCSGSSSNIGNNYVSWYQQLPGTAPKLLIYDSNKRPPGIPDRFSGSKSGTSATLGITGLQTGDEADYYCGAWDSSLSAVVFGGGTKLTVLG
// result 6.06
